TESTED_SYSTEM: BCLXL (Homo sapiens, UniProt Q07817, V10N/V9A)
Sequence (Q07817 with tags, fused parts or gaps V9A/V10N): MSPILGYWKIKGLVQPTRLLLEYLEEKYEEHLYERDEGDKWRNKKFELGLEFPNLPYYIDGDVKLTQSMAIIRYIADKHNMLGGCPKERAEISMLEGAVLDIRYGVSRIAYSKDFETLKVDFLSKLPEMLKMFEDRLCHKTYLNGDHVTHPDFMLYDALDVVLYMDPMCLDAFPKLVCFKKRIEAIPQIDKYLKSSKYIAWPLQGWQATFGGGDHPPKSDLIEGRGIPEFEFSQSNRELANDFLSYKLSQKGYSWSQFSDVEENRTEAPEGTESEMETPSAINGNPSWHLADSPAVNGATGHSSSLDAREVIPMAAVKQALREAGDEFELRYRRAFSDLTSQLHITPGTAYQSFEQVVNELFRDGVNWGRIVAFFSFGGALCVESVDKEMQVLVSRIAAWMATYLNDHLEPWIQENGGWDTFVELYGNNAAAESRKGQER
MEASUREMENT_DESCRIPTION: AlphaLISA assay (BIM peptide displacement)
COND: 20 pM protein, 1 nM peptide
pIC50: −log10 of the molar value.
Short version: pIC50 at least 10 is TRUE, less is FALSE.

Query block: Is it the case that CCN(CC)CCNCC(O)CCCN(c1cc(C)c(Nc2nc3ccccc3s2)nn1)c1nc(C(=O)O)c(CCCOc2ccc(C#CCN(C)C)cc2F)s1 (stereo not shown) has pIC50 reaching or exceeding 10?
Result block: TRUE

Query block: Is pIC50 for COC(CO)CN(c1cc(C)c(Nc2nc3ccccc3s2)nn1)c1nc(C(=O)O)cs1 (stereo not shown) at or above 10?
Result block: FALSE

----------
TESTED_SYSTEM: Bcl-xL protein (Homo sapiens, UniProt Q07817, N197C)
Construct: (2-197)[N197C]; His-His (two His8 stretches joined by a Gly/Ala/Ser/Thr linker)
Sequence (Q07817 2-197 N197C): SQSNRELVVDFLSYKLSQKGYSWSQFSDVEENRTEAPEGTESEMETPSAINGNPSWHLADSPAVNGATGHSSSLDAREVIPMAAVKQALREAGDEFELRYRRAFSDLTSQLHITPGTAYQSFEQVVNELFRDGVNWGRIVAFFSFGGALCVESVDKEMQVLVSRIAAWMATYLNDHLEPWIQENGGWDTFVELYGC
MEASUREMENT_DESCRIPTION: Fluorescence quenching assay (PUMA peptide displacement)
COND: 1 nM protein, 400 nM peptide, 2 hours at 23° C.; KI determined from IC50
Below is a list of entries, each paired with its recorded Ki value.
Please respond with the number in pM and leave the unit unwritten.

[
  {
    "STRUCTURE": "Cc1cc(N(CCCCN2CCC(N)CC2)c2nc(C(=O)O)c(CCCOc3ccc(C#CCN(C)C)cc3F)s2)nnc1Nc1nc2ccccc2s1",
    "TESTED_SYSTEM": "Bcl-xL protein (Homo sapiens, UniProt Q07817, N197C)",
    "UNIT_TEXT": "pM",
    "RESULT_NUMBER": 1.1
  },
  {
    "STRUCTURE": "CNCC#Cc1ccc(OCCCc2sc(N(CCCCCCN(C)C)c3cc(C)c(Nc4nc5ccccc5s4)nn3)nc2C(=O)O)c(F)c1",
    "TESTED_SYSTEM": "Bcl-xL protein (Homo sapiens, UniProt Q07817, N197C)",
    "UNIT_TEXT": "pM",
    "RESULT_NUMBER": 1
  }
]

We now examine a further compound.
Query block: Give the measured Ki of Cc1cc(N(CCCCC[N+](C)(C)CCO)c2nc(C(=O)[O-])c(CCCOc3ccc(C#CCN(C)C)cc3F)s2)nnc1Nc1nc2ccccc2s1 .
Result block: 5.3

----------
System: MOLT-4 cells
MEASUREMENT_DESCRIPTION: MOLT-4 cell viability, MTT assay
Assay type: cell-based
COND: Homo sapiens, MOLT-4, 48 h, 48 h exposure
pIC50: −log10 of the molar value.
So basically: pIC50 at 7 or higher? That is fulfilled. Lower than 7? That is not fulfilled.

[
  {
    "COMPOUND": "CNCC#Cc1ccc(OCCCc2sc(N(CCCP(=O)(O)O)c3cc(C)c(Nc4nc5ccccc5s4)nn3)nc2C(=O)O)c(F)c1",
    "GROUP": "not fulfilled"
  }
]

Query block: Given the entry Cc1cc(N(CCCC(O)CN2CCC(N)CC2)c2nc(C(=O)O)c(CCCOc3ccc(C#CCN(C)C)cc3F)s2)nnc1Nc1nc2ccccc2s1 (stereo not shown) , answer whether its pIC50 meets or surpasses 7.
Result block: not fulfilled

Query block: Please indicate if the recorded pIC50 for Cc1cc(N(C)c2nc(C(=O)O)c(CCCOc3ccc(C#CC(C)N(C)C)cc3F)s2)nnc1Nc1nc2ccccc2s1 (stereo not shown) meets or exceeds 7.
Result block: fulfilled

Query block: Confirm if pIC50 reported for the compound CNCC#Cc1ccc(OCCCc2sc(N(CCCC(O)C[N+](C)(C)C)c3cc(C)c(Nc4nc5ccccc5s4)nn3)nc2C(=O)[O-])c(F)c1 (stereo not shown) is 7 or above.
Result block: not fulfilled

----------
TESTED_SYSTEM: BCLXL (Homo sapiens, UniProt Q07817, V10N/V9A)
MEASUREMENT_DESCRIPTION: Fluorescence polarisation assay (PUMA-based probe displacement); also: 20 nM protein, 10 nM fluorescent probe
pKi: −log10 of the molar value.
Form field: pKi (one value per entry).

Take a look at these entries with their results.
[
  {
    "COMPOUND": "Cc1cc(N(C)c2nc(C(=O)O)c(C3CN(Cc4ccccc4)C3)s2)nnc1Nc1nc2ccccc2s1 [Example 145]",
    "pKi": 6.74
  },
  {
    "COMPOUND": "Cc1cc(N(C)c2nc(C(=O)O)c(CC3(COc4ccc(C#CCN(C)C)cc4F)CC3)s2)nnc1Nc1nc2ccccc2s1 [Example 140]",
    "pKi": "> 9.00"
  },
  {
    "COMPOUND": "CNCC#Cc1ccc(OCCCc2sc(N(CCC(O)COC)c3cc(C)c(Nc4nc5ccccc5s4)nn3)nc2C(=O)O)c(F)c1 (centres unmarked) [Example 109]",
    "pKi": "> 9.00"
  },
  {
    "COMPOUND": "Cc1cc(N(CCCC(O)CN2CCC(N)CC2)c2nc(C(=O)O)c(CCCOc3ccc(C#CCN(C)C)cc3F)s2)nnc1Nc1nc2ccccc2s1 (centres unmarked) [Example 171]",
    "pKi": "> 9.00"
  }
]

Here is the next item to consider.
Query block: What does the record list as pKi for CNCC#Cc1ccc(OCCCc2sc(N(CCCC(O)C[N+](C)(C)CCCS(=O)(=O)[O-])c3cc(C)c(Nc4nc5ccccc5s4)nn3)nc2C(=O)O)c(F)c1 (centres unmarked) [Example 146] ?
Result block: > 9.00

----------
Tested on: MOLT-4 cells
MEASUREMENT_DESCRIPTION: MOLT-4 cell viability, MTT assay
Assay type: cell-based
COND: Homo sapiens, MOLT-4, 48 h, 48 h exposure
OBSERVABLE: IC50 (nM)
I only need the number, in nM, no unit after it.

Look over these answered cases.
[
  {
    "MOLECULE": "Cc1cc(N(C)c2nc(C(=O)O)c(CCCOc3ccccc3)s2)nnc1Nc1nc2ccccc2s1",
    "UNIT_TEXT": "nM",
    "IC50": 85.3
  },
  {
    "MOLECULE": "CNCC#Cc1ccc(OCCCc2sc(N(CC(CO)OC)c3cc(C)c(Nc4nc5ccccc5s4)nn3)nc2C(=O)O)c(F)c1 (centres unmarked)",
    "UNIT_TEXT": "nM",
    "IC50": 96
  },
  {
    "MOLECULE": "Cc1cc(N(CCCC(=O)O)c2nc(C(=O)O)c(CCCOc3ccc(C#CCN(C)C)cc3F)s2)nnc1Nc1nc2ccccc2s1",
    "UNIT_TEXT": "nM",
    "IC50": 149
  },
  {
    "MOLECULE": "Cc1cc(N(CCCCN)c2nc(C(=O)O)c(CCCOc3ccc(C#CCN(C)C)cc3F)s2)nnc1Nc1nc2ccccc2s1",
    "UNIT_TEXT": "nM",
    "IC50": 96.4
  }
]

Now, please, on to the next molecule.
Query block: Consider the molecule shown here: CNCC(O)CCCN(c1cc(C)c(Nc2nc3ccccc3s2)nn1)c1nc(C(=O)O)c(CCCOc2ccc(C#CCN(C)C)cc2F)s1 (centres unmarked) What is its recorded IC50?
Result block: 136

----------
# pIC50 per record follows
System: MOLT-4 cells
MEASUREMENT_DESCRIPTION: MOLT-4 cell viability, MTT assay
Format: cell-based
COND: Homo sapiens, MOLT-4, 48 h, 48 h exposure
pIC50: −log10 of the molar value.

[
  {
    "STRUCTURE": "C=Cc1sc(N(C)c2cc(C)c(Nc3nc4ccccc4s3)nn2)nc1C(=O)O",
    "pIC50": "< 4.82"
  },
  {
    "STRUCTURE": "Cc1cc(N(CCN2CCOCC2)c2nc(C(=O)O)cs2)nnc1Nc1nc2ccccc2s1",
    "pIC50": "< 4.89"
  },
  {
    "STRUCTURE": "COCc1c(Nc2nc3ccccc3s2)nnc(Nc2nc(C(=O)O)cs2)c1C",
    "pIC50": "< 4.82"
  },
  {
    "STRUCTURE": "CN(c1ccc(Nc2nc3ccccc3s2)nn1)c1cccc(C(=O)O)n1",
    "pIC50": "< 4.82"
  },
  {
    "STRUCTURE": "Cc1cc(N(C)c2nc(C(=O)O)c(C3CCCCC3)s2)nnc1Nc1nc2ccccc2s1",
    "pIC50": "< 4.82"
  }
]

Here's the next entry for you.
Query block: # get_value(readout='pIC50', item= CCN(CC)CCCN(c1cc(C)c(Nc2nc3ccccc3s2)nn1)c1nc(C(=O)O)cs1 )
Result block: < 4.82

----------
Tested on: MOLT-4 cells
MEASUREMENT_DESCRIPTION: MOLT-4 cell viability, MTT assay
Type: cell-based
COND: Homo sapiens, MOLT-4, 48 h, 48 h exposure
OBSERVABLE: IC50

Query block: Need IC50, item CNCC#Cc1ccc(OCCCc2sc(N(CC(CO)N3CCOCC3)c3cc(C)c(Nc4nc5ccccc5s4)nn3)nc2C(=O)O)c(F)c1 (stereo not drawn) [Example 115]
Result block: > 0.15 µM

Query block: Query (compound): Cc1cc(N(C)c2nc(C(=O)O)c(CC3(COc4ccc(C#CCN(C)C)cc4F)CC3)s2)nnc1Nc1nc2ccccc2s1 [Example 140] ; field requested: IC50
Result block: 0.0234 µM

Query block: Requested read-out: IC50. Entry: Cc1cc(N(C)c2nc(C(=O)O)c(N3CC[C@H](OCc4ccccc4)C3)s2)nnc1Nc1nc2ccccc2s1 [Example 70]
Result block: > 41.6 µM
